B1: CPEB3 Ribozyme (parent)
chain: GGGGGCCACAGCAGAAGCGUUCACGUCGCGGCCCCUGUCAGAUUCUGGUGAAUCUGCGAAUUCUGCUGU

Variants of: B1
Test: self-cleavage, relative activity (ratio to wild type); higher = more cleavage; co-transcriptional
Would you please tag the item y when its self-cleavage is 0.3 or above, and n when it is below?

Some solved entries appear below for comparison.
[[record]]
mutant_id = "C32A A51G"
category_label = "y"

[[record]]
mutant_id = "G14U G30U"
category_label = "n"

[[record]]
mutant_id = "C22G G47A"
category_label = "n"

[[record]]
mutant_id = "G4U G19A"
category_label = "n"

[[record]]
mutant_id = "U21C C34G"
category_label = "y"


// inclusive: self-cleavage at least 0.3? input: C12A C57A n

// inclusive: self-cleavage at least 0.3? input: G25U A51U n

// inclusive: self-cleavage at least 0.3? input: C22A A60C n

// inclusive: self-cleavage at least 0.3? input: G30A G68A y

The reported measurements were obtained from the RNAGym collection of RNA variant scans (doi:10.7554/elife.80360).
